Items are presented alongside their recorded TGI.
Test system: PC-3 prostate
Experiment: NCI tumour cell line growth inhibition, 48 h

Worked examples follow.
[[record]]
molecule = "NC(=O)C1CCCN1C(=O)C(Cc1cnc[nH]1)NC(=O)C1CCCC1 (stereo not drawn)"
test_system = "PC-3 prostate"
endpoint_label = "TGI"
measured_result = "> 100 µM"

[[record]]
molecule = "CNC(=O)c1ccc(N2C(=S)N(c3cnc(C#N)c(C(F)(F)F)c3)C(=O)C23CCC3)cc1F"
test_system = "PC-3 prostate"
endpoint_label = "TGI"
measured_result = "> 100 µM"

[[record]]
molecule = "Cc1ccc([N+](=O)[O-])cc1S(=O)(=O)Nc1ccc(C2=NN(S(=O)(=O)c3cc([N+](=O)[O-])ccc3C)C(c3ccccc3)C2)cc1 (stereo not drawn)"
test_system = "PC-3 prostate"
endpoint_label = "TGI"
measured_result = "98.8 µM"


Query molecule follows.
Entry under review: "Cc1ccc(O)c(Cc2nc3ccccc3nc2-c2cccc(Cl)c2)c1" . Reported TGI?
> 100 µM

----------
System: MALME-3M melanoma
Experiment: NCI tumour cell line growth inhibition, 48 h
endpoint-label: TGI

// below: answered compounds
[[record]]
compound = "CC(=O)O[C@@H]1C[C@]2(C(=O)c3ccccc3)C(=O)C(=O)S[C@]12c1ccccc1"
measured_result = "> 100 µM"

[[record]]
compound = "COc1cc2c(cc1OC)OC(c1c(OC)ccc(OC)c1O)CC2 (stereo unspecified)"
measured_result = "> 100 µM"

[[record]]
compound = "O=C1NC(=C(Cl)Cl)/C(=N/S(=O)(=O)N2CCCCC2)N1"
measured_result = "3.49 µM"

[[record]]
compound = "C/C=C(\\C)c1cc(=O)c2c(C)cc3c(c2o1)C(=O)c1c(O)c(C2CC(C)(N(C)C)C(OC(C)=O)C(C)O2)cc(C2CC(N(C)C)C(O)C(C)O2)c1C3=O (stereo unspecified)"
measured_result = "1.13 µM"

[[record]]
compound = "N#CC12C(=O)NC(=O)C1(C#N)C1C=CC2CC1 (stereo unspecified)"
measured_result = "> 100 µM"


Param readout = TGI; param system = MALME-3M melanoma; param query = CCOC1OC(COC(=O)C(C)(C)C)C(O)CC1n1cc(C)c(=O)[nH]c1=O (stereo unspecified) ; response: value
> 100 µM

----------
System: SR leukemia
Test: NCI tumour cell line growth inhibition, 48 h; in the data active means GI50 below about 0.43 µM; inactive means the rest
Use one of these outcomes when replying: True = active, False = inactive

As a guide, the following entries are already answered.
[[record]]
molecule = "COc1ccc(/C=C\\c2cc(OC)c(OC)c(OC)c2)cc1OCC(=O)Nc1nc2ccc(F)cc2s1"
test_system = "SR leukemia"
discrete_label = "False"

[[record]]
molecule = "C=CN(C(=O)N1CCN(c2cc3c(cc2F)c(=O)c(C(=O)O)cn3C2CC2)CC1)c1nc(-c2ccc(OC)cc2)cs1"
test_system = "SR leukemia"
discrete_label = "False"

[[record]]
molecule = "C[C@@H](Oc1cc(-n2cnc3ccc(OC4CCN(C)CC4)cc32)sc1C(N)=O)c1ccccc1Cl"
test_system = "SR leukemia"
discrete_label = "True"


Test call, this molecule: CC(C)(C)C(=O)OCOP(=O)(NCc1ccccc1)C1CCCN(O)C1=O (stereo not given)
False

I would be grateful if you could indicate the recorded call for "O=C1Nc2c(ccc(Cl)c2Cl)/C1=C/c1cc(Br)c(O)c(Br)c1" .
False

Give the logged outcome of this assay for the following molecule: "Fc1ccc(-c2c(-c3ccncc3)nc3n2CCS3)cc1"
False

What did the test return for "CCc1ccc(Oc2c(-c3ccc(OCc4ccc(Cl)cc4)cc3O)n[nH]c2C(F)(F)F)cc1" ?
False

Recorded call for COc1cc2c(cc1OC(C)C)[C@H](c1ccc(Cl)cc1)N(c1ccc(N(C)CC3CCC(N4CCN(C)C(=O)C4)CC3)cc1)C(=O)C2 (stereo not given in full) ?
True

Can you look up the reported call for "O=c1oc2ccc(I)cc2c(=O)n1-c1ccc(Br)cc1F" for me?
False

Tell me the recorded outcome of this test for "Cc1cnc2n1S(=O)(=O)c1cc(C(=O)Nc3cccc4nsnc34)c(Cl)cc1S2" .
False
